Origin of the recorded values: paper PMC12507517

Target: T1, Nfatc1 (affinity-purified) (UniProt O95644 1-698)
T1 sequence: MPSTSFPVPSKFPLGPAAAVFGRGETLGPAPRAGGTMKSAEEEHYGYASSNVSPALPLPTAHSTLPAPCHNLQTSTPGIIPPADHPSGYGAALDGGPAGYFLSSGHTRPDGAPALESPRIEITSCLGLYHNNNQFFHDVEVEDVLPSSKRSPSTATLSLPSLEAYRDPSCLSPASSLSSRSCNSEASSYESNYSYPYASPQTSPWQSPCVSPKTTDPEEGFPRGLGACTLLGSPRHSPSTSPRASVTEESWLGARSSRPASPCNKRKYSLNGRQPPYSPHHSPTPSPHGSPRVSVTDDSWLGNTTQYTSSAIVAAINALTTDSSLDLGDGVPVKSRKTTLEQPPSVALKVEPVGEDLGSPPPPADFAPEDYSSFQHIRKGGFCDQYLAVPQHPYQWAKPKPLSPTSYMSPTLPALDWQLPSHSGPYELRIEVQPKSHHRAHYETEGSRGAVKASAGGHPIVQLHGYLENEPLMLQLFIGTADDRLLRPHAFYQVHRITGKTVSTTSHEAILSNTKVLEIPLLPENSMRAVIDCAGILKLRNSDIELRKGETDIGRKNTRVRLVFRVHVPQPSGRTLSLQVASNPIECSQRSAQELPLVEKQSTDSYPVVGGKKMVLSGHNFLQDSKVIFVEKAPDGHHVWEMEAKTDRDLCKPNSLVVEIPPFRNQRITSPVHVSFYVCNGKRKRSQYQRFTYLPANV
Experiment: EMSA; EMSA: 10 mM Tris-HCl pH 7.5, 50 mM NaCl, 10% glycerol, 1% NP-40, 1 mM EDTA, 0.1 mg/mL salmon sperm DNA, room temp; BLI: 25 mM Tris-HCl pH 7.5, 150 mM NaCl, 0.02% Tween 20, 0.1 mg/mL salmon sperm DNA, 1 mM DTT
Settings: protein: recombinant; label: 32P
Test Readout: binding result

>  <Binder>
2ΔW Cxcl2 probe (weak site mutated) (dsDNA) DNA 1: TCGACATGAGGGGACCCTGAGCTCAGGGAATTTCCCTGGTCCCCGGGCTTTTGGAG DNA 2: CTCCAAAAGCCCGGGGACCAGGGAAATTCCCTGAGCTCAGGGTCCCCTCATGTCGA

>  <Reported>
binds

$$$$
>  <Binder>
2WT Cxcl2 probe (dsDNA) DNA 1: TCGACATGAGGGGACCCTGAGCTCAGGGAATTTCCCTGGTCCCCGGGCTTTTCCAG DNA 2: CTGGAAAAGCCCGGGGACCAGGGAAATTCCCTGAGCTCAGGGTCCCCTCATGTCGA

>  <Reported>
binds

$$$$
>  <Binder>
2ΔS Cxcl2 probe (strong site mutated) (dsDNA) DNA 1: TCGACATGAGGGGACCCTGAGCTCAGCTAATTTGACTGGTCCCCGGGCTTTTCCAG DNA 2: CTGGAAAAGCCCGGGGACCAGTCAAATTAGCTGAGCTCAGGGTCCCCTCATGTCGA

>  <Reported>
binds

$$$$
